The origin of these recorded values is ChEMBL document CHEMBL1201862.

Tested on: HT-29
Assay: NCI tumour cell line growth inhibition, 48 h
Activity calls are given as the source filed them. No stated cut-off is given here; in the data, active = GI50 up to about 1.1 µM and inactive = higher.
Items are presented alongside their recorded GI50.
RESULT_TYPE: GI50

* O=C1C=C/C(=N/c2ccccc2)c2ccccc21 | 16.9 µM (inactive)
* O=c1[nH]nc(Nc2ccccc2)c2nnn(Cc3ccccc3)c12 | > 100 µM (inactive)
* CC(CC(C#N)(c1ccccc1)c1ccccc1)N1CCCCC1 (stereo not drawn) | 18.3 µM (inactive)
* O=C(N/N=C1\CCc2ccccc2C1)N/N=C1\CCc2ccccc2C1 | > 10 µM (inactive)
* CCOC(=O)c1c(-c2ccc(OC)cc2)ccn1C | > 10 µM (inactive)
* Cc1n[nH]c(N)c1C(N)=O | > 100 µM (inactive)
* C=CC(c1ccccc1)C1(O)c2cccc(O)c2C(=O)c2c(O)cccc21 (stereo not drawn) | 11.5 µM (inactive)
* N#CCCN(CCCN(C(=O)Nc1ccc(NC(=O)N(CCCN(CCC#N)C(N)=O)c2ccccc2)cc1)c1ccccc1)C(N)=O | > 100 µM (inactive)
* COC(=O)CC(c1ccccc1)C1(c2ccccc2)SCCS1 (stereo not drawn) | 222 µM (inactive)
* O=c1c(C(c2cc(OCc3ccccc3)cc(OCc3ccccc3)c2)c2c(O)oc3ccccc3c2=O)c(O)oc2ccccc12 | 4.15 µM (inactive)
* O=C(NC1CC1)c1c(O)[nH]c(=S)[nH]c1=O | > 100 µM (inactive)
* Clc1cc2nnn(C3CCCO3)c2cc1Cl (stereo not drawn) | > 100 µM (inactive)
* COc1ccc(NC(=O)CC/C(CC(=O)C(C)(C)C)=N\NC(=O)C(N)=O)cc1 | > 100 µM (inactive)
* COc1ccc(CCNC(=O)c2ccccc2C2c3ccc(OCc4ccccc4)cc3Oc3cc(OCc4ccccc4)ccc32)cc1OC | > 100 µM (inactive)
* O=C(Nc1cc(Cl)c(Cl)cc1Cl)C(=O)C(C(=O)c1ccc(Cl)c(Cl)c1)C1OC(=O)c2ccccc21 (stereo not drawn) | 18.5 µM (inactive)
* O=C(CC(C(=O)c1cccs1)c1ccsc1)c1ccccc1 (stereo not drawn) | > 100 µM (inactive)
* CCOP(=O)(OCC)/C(=C/c1cccs1)CC(C)=O | > 100 µM (inactive)
* O=C(N/C(=C\c1cccc([N+](=O)[O-])c1)c1nc2c(O)nc(S)nc2[nH]1)c1ccccc1 | > 100 µM (inactive)
* COC(OC)C1OCC(n2cc(F)c(=O)[nH]c2=O)C1O (stereo not drawn) | > 100 µM (inactive)
* COC1C=COC2(C)Oc3c(C)c(O)c4c(O)c(c(/C=N/N5CCN(N)CC5)c(O)c4c3C2=O)NC(=O)C(C)=CC=CC(C)C(O)C(C)C(O)C(C)C(OC(C)=O)C1C (stereo not drawn) | 38.4 µM (inactive)
* N=C(N)NS(=O)(=O)c1ccc(/N=N/c2c(O)c(C(=O)O)cc3ccccc23)cc1 | > 100 µM (inactive)
* O=C(CNc1ccc([N+](=O)[O-])cc1)Nn1c(-c2ccccc2)nc2ccccc2c1=O | 3.06 µM (inactive)
* O=c1[nH]c(=O)n(CCOc2ccc(Cl)cc2)cc1Nc1ccccc1 | > 100 µM (inactive)
* COc1ccc(NC(=O)CSc2nc(C)nc3c2sc(=S)n3-c2ccccc2)cc1 | > 10 µM (inactive)
* CC(=O)N[C@@H](Cc1ccc(O)cn1)C(=O)NCc1ccc(Cl)cc1 | > 100 µM (inactive)
* Cc1cccc(/N=N/C(=O)NNc2cccc(C)c2C)c1C | 56.9 µM (inactive)
* CCCc1c(OC)c(=O)c2c(O)cc(OC)c3c4c(OC)cc(O)c5c(=O)c(OC)c(CCC)c(c1c23)c54 | 4.79 µM (inactive)
* COc1cc2nc(-c3cccs3)nc(Nc3cccc([N+](=O)[O-])c3)c2cc1OC | 28.1 µM (inactive)
* CC1(CCCO)CCCCCCCCCC(C)(CCCO)C1=O (stereo not drawn) | > 100 µM (inactive)
* NNc1ccccc1Cl | > 100 µM (inactive)
* Cc1cc2c(=O)c(C)n[nH]c2c(C#N)c1C | > 100 µM (inactive)
* Clc1ccc2c(SCC3CO3)c3ccccc3nc2c1 (stereo not drawn) | 1.64 µM (inactive)
* Cc1ccccc1C(C#N)C(=O)C(=O)Nc1cccc(Cl)c1 (stereo not drawn) | > 100 µM (inactive)
